- TARGET OR SYSTEM: T1, recombinant human IGF-II (Insulin-like Growth Factor II) (human, UniProt P01344 25-91, biotinylated (Biotinyl-IGF-II, GroPep) where immobilised in SPR, site not stated; not biotinylated in ITC and as SPR analyte)
- T1 construct: also called IGF2; IGF-2
- T1 sequence (P01344 25-91 limits assumed): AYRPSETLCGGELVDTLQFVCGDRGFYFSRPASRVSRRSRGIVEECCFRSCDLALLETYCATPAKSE
- TEST DESCRIPTION: SPR, IGF-II immobilised, kinetic fit
kon listing for selected binders.
Unit M⁻¹ s⁻¹ implied. Number only.

[Q] Given the binder IGF2R domain 11 with serine at position 1544 (E1544S) (receptor) NEHDDCQVTNPSTGHLFDLSSLSGRAGFTAAYSSKGLVYMSICGENENCPPGVGACFGQTRISVGKANKRLRYVDQVLQLVYKDGSPCPSKSGLSYKSVISFVCRPEAGPTNRPMLISLDKQTCTLFFSWHTPLACEQATHHHHHH , write its reported kon.
[A] 2.12e+06

Lab note: next binder to report on.
[Q] Fill in reported kon for this entry: IGF2R domain 11 with proline at position 1544 (E1544P) (receptor) NEHDDCQVTNPSTGHLFDLSSLSGRAGFTAAYSPKGLVYMSICGENENCPPGVGACFGQTRISVGKANKRLRYVDQVLQLVYKDGSPCPSKSGLSYKSVISFVCRPEAGPTNRPMLISLDKQTCTLFFSWHTPLACEQATHHHHHH
[A] 734000
